Run description: Stability investigation of crystal forms A, B, C, D and the amorphous form of the compound of formula (1) (related substances by HPLC, moisture, XRD, DSC)
Format: physicochemical
Assay setup: 40° C., RH 75%, closed, 1 M
Measured metric: Moisture % (%)

(a) C[C@H]1CCN1c1nc(N2C[C@@H]3[C@@H](CC(=O)O)[C@@H]3C2)c2c(n1)C(F)(F)CC2 [Crystal form A]
(b) C[C@H]1CCN1c1nc(N2C[C@@H]3[C@@H](CC(=O)O)[C@@H]3C2)c2c(n1)C(F)(F)CC2 [Amorphous form]
(c) C[C@H]1CCN1c1nc(N2C[C@@H]3[C@@H](CC(=O)O)[C@@H]3C2)c2c(n1)C(F)(F)CC2 [Crystal form C]
(d) C[C@H]1CCN1c1nc(N2C[C@@H]3[C@@H](CC(=O)O)[C@@H]3C2)c2c(n1)C(F)(F)CC2 [Crystal form B]
(e) C[C@H]1CCN1c1nc(N2C[C@@H]3[C@@H](CC(=O)O)[C@@H]3C2)c2c(n1)C(F)(F)CC2 [Crystal form D]
Prompt: Going from lowest to highest recorded Moisture %, rank the entries listed above. Hello, could you send the labels back in the order asked? Thank you.
Response: e, c, d, a, b
